Every entry's value here was drawn from paper PMC10584170.

Tested on: P. falciparum female gametocytes
Experiment: P. falciparum Dual Gamete Formation Assay (PfDGFA), female readout (Pfs25-positive female gametes)
Format: cell-based, Plasmodium falciparum NF54
True means recorded Cytotox ratio Pf Female is 5 or above; False means it is below 5.

CN(C)c1ccnc2ccc(NC(=O)Nc3ccnc4ccccc34)cc12 ... False
CCN(CC)CCN(Cc1ccc(-c2ccc(C(F)(F)F)cc2)cc1)C(=O)Cn1cc(Cc2cnn(C)c2)c(=O)nc1/C=C/c1cccc(F)c1F.O=C(O)C(O)C(O)C(=O)O ... False
FC(F)(F)c1ccc2[nH]c(-c3ccc(-c4cccc(CNCCN5CCNCC5)c4)cc3)nc2c1.O=C(O)C(F)(F)F ... False
CC(CO)(CO)NCc1cc2c3ccccc3c(CNC(C)(CO)CO)cc2c2ccccc12.CS(=O)(=O)O ... False
Cc1ccc(-n2c(Sc3ncnc4sccc34)nnc2N2CCCC2)cc1 ... True
O=c1c(Br)ccccc1Br ... True

Evaluate [O-][s+]1c(Cl)c(-c2ccc(Cl)cc2)c2ccc(Cl)cc21 (stereo not drawn) : Cytotox ratio Pf Female at minimum 5?
True

Evaluate COc1ccc2nc(-c3cc(-c4ccc(NC(C)=O)cc4)cnc3N)[nH]c2c1 : Cytotox ratio Pf Female at minimum 5?
False

Evaluate CNC(=O)c1ccccc1Nc1nc(Nc2ccc(N3CCOCC3)cc2)ncc1Cl.Cl : Cytotox ratio Pf Female at minimum 5?
False

Evaluate Nc1cc(C=Cc2ccc([N+](=O)[O-])s2)nc2ccccc12 : Cytotox ratio Pf Female at minimum 5?
False

Evaluate Br.c1cc(C2=NC3CCCCC3N2)ccc1OCCCOc1ccc(C2=NC3CCCCC3N2)cc1 (stereo not drawn) : Cytotox ratio Pf Female at minimum 5?
False

Evaluate Cc1cc(C(=O)OCC(=O)Nc2c(C)n(C)n(-c3ccccc3)c2=O)c(C)n1-c1ccc(F)cc1 : Cytotox ratio Pf Female at minimum 5?
True

Evaluate CC(C)(CNC(=O)[C@H]1CCCCN1)c1nc(-c2ccc(Cl)c(O)c2)c(-c2ccncc2)[nH]1.Cl : Cytotox ratio Pf Female at minimum 5?
True
